Biological target: Histone deacetylase 9 (Homo sapiens, UniProt Q9UKV0)
Sequence (Q9UKV0 whole entry): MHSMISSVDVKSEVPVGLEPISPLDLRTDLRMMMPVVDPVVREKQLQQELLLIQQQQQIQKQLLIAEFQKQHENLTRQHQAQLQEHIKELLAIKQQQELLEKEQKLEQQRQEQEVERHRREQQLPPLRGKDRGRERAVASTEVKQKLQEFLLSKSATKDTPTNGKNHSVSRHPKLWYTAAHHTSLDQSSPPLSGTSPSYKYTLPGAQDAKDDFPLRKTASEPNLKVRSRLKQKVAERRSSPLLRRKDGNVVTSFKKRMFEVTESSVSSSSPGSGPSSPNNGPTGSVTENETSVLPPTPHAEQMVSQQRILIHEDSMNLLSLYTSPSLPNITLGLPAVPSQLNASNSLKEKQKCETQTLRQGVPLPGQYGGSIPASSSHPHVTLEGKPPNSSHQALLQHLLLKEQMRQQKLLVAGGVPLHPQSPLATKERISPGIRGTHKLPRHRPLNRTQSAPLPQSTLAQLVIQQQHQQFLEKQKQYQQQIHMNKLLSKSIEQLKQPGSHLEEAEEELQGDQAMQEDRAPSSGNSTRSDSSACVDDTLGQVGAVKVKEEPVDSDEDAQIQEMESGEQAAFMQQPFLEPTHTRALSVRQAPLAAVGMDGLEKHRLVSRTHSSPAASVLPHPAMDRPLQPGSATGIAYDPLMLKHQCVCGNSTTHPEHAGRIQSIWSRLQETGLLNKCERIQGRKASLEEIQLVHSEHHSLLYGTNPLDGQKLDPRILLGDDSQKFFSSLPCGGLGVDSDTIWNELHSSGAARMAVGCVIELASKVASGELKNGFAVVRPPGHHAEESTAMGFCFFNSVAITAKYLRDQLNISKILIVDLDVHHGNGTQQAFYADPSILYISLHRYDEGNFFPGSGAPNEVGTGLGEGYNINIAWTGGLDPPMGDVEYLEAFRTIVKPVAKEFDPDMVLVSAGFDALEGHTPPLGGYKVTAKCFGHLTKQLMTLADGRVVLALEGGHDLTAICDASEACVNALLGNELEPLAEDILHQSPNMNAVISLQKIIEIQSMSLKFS
Test: Inhibition of recombinant human HDAC9 using fluorogenic substrate by fluorescence microplate reader assay
Please provide measured IC50 for the entries that follow.
Kindly provide the numeric value in nM only, without the unit symbol.

Form: Entry = `C[C@H](CN(C)Cc1ccccc1)NC(=O)c1ccc(-c2noc(C(F)(F)F)n2)cc1` | System = Histone deacetylase 9 (Homo sapiens, UniProt Q9UKV0) | IC50 = ____ 0.9

// same read-out, input: `CC(C)(CNC(=O)c1cccc(-c2noc(C(F)(F)F)n2)c1)c1coc(-c2ccccc2)n1` 2.4

* * *

Target: Polyamine deacetylase HDAC10 (Homo sapiens, UniProt Q969S8)
Sequence (Q969S8 whole entry): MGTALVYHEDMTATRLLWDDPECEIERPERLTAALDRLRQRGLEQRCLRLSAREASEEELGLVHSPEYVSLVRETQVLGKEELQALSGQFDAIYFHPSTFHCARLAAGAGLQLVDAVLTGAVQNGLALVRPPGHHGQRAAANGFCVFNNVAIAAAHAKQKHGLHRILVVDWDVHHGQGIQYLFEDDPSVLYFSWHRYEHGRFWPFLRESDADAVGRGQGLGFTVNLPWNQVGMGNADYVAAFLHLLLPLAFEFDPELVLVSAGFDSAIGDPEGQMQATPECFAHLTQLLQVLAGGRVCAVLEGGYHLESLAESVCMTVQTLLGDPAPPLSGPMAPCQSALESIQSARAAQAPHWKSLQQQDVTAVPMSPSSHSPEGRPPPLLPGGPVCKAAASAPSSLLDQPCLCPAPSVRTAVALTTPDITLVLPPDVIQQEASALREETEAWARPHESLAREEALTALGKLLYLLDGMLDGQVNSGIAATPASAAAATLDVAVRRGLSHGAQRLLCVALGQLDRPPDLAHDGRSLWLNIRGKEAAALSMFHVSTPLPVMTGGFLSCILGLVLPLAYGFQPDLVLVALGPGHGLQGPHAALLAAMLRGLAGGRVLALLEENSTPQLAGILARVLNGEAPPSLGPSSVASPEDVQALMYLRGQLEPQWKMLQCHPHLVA
Assay: Inhibition of recombinant human HDAC10 using fluorogenic substrate by fluorescence microplate reader assay
pIC50: −log10 of the molar value.
Hi there, I'd appreciate the recorded pIC50 for every entry that follows.

State the recorded pIC50 for this entry: `C[C@H](CN(C)Cc1ccccc1)NC(=O)c1ccc(-c2noc(C(F)(F)F)n2)cc1` < 6.22

And for `CC(C)(CNC(=O)c1cccc(-c2noc(C(F)(F)F)n2)c1)c1coc(-c2ccccc2)n1` ? < 5.30

* * *

Experiment: Inhibition of HDAC class 2a in human THP-1 cells using TFA-lysine as fluorogenic substrate by fluorescence microplate reader assay
Assay type: cell-based
MEASUREMENT LABEL: IC50
Remember to follow the number with its unit.

May I ask what IC50 has been recorded for `CC(C)(CNC(=O)c1cccc(-c2noc(C(F)(F)F)n2)c1)c1coc(-c2ccccc2)n1` ? 887 nM

* * *

Assay: Inhibition of HDAC class 2b in human HT-29 cells using Boc-Lys-Ac as substrate incubated for 3 hrs by microplate reader assay
Format: cell-based
Conditions: HT-29, 3 h
pIC50: −log10 of the molar value.
Give measured pIC50 for each item. Keep answers brief.

Need pIC50, item `CC(C)(CNC(=O)c1ccc(-c2noc(C(F)(F)F)n2)cc1)C(=O)NCc1ccccc1` < 4.82

Then `CC(C)(CNC(=O)c1ccc(-c2noc(C(F)(F)F)n2)cc1)c1coc(-c2ccccc2)n1` ? < 4.82

And `CN(Cc1ccccc1)C(=O)CCNC(=O)c1cccc(-c2noc(C(F)(F)F)n2)c1` ? < 4.30

Follow-up item: `CN(Cc1ccccc1)C(=O)C(C)(C)CNC(=O)c1ccc(-c2noc(C(F)(F)F)n2)cc1` < 4.82

Do the same for `COC[C@@H](NC(=O)c1ccc(-c2noc(C(F)(F)F)n2)nc1)C(=O)NCc1ccccc1` please < 4.82

Follow-up entry: `C[C@H](CN(C)Cc1ccccc1)NC(=O)c1ccc(-c2noc(C(F)(F)F)n2)nc1` < 4.30

Proceed to `C[C@H](CN(C)Cc1ccccc1)NC(=O)c1ccc(-c2noc(C(F)(F)Cl)n2)cc1` < 5.70

Another molecule to look at: `CN(Cc1ccccc1)C(=O)C(C)(C)CNC(=O)c1cccc(-c2noc(C(F)(F)F)n2)c1` < 4.30

Would you mind doing `C[C@H](CN(C)Cc1ccccc1)NC(=O)c1cccc(-c2noc(C(F)(F)F)n2)c1` as well? < 4.30

* * *

I'd appreciate it if you could supply IC50 values for the items below.
Molecular target: Histone deacetylase 4 (Homo sapiens, UniProt P56524)
Sequence (P56524 whole entry): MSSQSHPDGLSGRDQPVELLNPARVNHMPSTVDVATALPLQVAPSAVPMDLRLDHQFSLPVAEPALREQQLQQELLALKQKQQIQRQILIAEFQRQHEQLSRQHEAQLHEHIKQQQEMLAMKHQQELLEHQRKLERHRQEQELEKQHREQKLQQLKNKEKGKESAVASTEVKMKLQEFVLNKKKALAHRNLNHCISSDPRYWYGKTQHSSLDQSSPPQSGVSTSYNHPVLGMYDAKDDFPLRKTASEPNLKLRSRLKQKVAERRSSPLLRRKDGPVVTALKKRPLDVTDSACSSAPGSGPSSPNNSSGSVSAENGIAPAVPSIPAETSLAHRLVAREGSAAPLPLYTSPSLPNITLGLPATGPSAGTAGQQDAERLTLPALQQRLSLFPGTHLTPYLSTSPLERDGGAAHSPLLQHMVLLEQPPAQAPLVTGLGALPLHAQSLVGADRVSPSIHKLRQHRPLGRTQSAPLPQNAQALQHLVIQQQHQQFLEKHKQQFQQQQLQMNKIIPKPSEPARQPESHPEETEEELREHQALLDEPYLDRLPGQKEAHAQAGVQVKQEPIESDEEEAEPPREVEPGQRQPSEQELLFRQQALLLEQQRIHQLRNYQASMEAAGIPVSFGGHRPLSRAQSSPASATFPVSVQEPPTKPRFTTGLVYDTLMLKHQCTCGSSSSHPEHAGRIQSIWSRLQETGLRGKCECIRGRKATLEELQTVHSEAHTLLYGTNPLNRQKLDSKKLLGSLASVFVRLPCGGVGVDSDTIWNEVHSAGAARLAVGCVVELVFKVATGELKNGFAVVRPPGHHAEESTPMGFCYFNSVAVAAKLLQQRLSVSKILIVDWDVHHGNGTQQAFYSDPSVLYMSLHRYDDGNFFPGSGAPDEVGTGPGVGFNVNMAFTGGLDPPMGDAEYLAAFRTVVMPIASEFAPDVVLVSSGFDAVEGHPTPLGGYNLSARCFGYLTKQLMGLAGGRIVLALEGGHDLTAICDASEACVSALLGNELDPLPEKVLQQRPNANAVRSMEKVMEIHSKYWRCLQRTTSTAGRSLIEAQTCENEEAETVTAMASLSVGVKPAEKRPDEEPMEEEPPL
Assay: Inhibition of recombinant human HDAC4 using fluorogenic substrate by fluorescence microplate reader assay

Missing value: IC50, Histone deacetylase 4 (Homo sapiens, UniProt P56524), entry `C[C@H](CN(C)Cc1ccccc1)NC(=O)c1ccc(-c2noc(C(F)(F)F)n2)cc1` . Fill in? 0.08 nM

And for `CC(C)(CNC(=O)c1cccc(-c2noc(C(F)(F)F)n2)c1)c1coc(-c2ccccc2)n1` ? 128 nM
